tested on: Lefty1; assay: Lefty1 binders on small-molecule microarrays, primary screen, biochemical, small-molecule microarray, 635/667 nm fluorescence (AID 1139); settings: small-molecule microarray binding, fluorescence 635/667; higher = more signal
Decision: composite z-score >= -0.1 yields Criterion met, all other cases yield Criterion not met.

| compound | categoryLabel |
| --- | --- |
| COc1ccc(CCNC(=O)[C@@]2(C)c3ccccc3C(=O)N(C(C)C)[C@H]2c2ccc(CO)cc2)cc1 | Criterion met |
| C=C(COC)/C(=C/C[C@H](OC(C)=O)c1ccc(CO)o1)c1cc(C(=O)OC)ccc1OC | Criterion met |
| [N-]=[N+]=Nc1ccccc1[C@@H]1OC(c2ccc(OCCCO)cc2)=N[C@]1(Cc1ccccc1)C(=O)N1CCOCC1 | Criterion met |
| COc1cc(NN2C(C(O)c3ccco3)C=CC3C(=O)N(c4ccccc4)C(=O)C32)cc(OC)c1OC (centres undefined) | Criterion met |
| C=C(CCCC)/C(=C/C[C@@H](OC(C)=O)c1ccc(OCCO)cc1)c1cnc2ccccc2c1 | Criterion met |

Q) Could you verify whether the entry COC(=O)[C@@]1(Cc2ccc(OC)cc2)[C@H]2c3cc(C(=O)N4CCCC4)n(CCN4CNCC4=O)c3C[C@H]2CN1C(=O)c1ccccc1 shows composite z-score of no less than -0.1?
A) Criterion not met

Q) Confirm if composite z-score reported for the compound O=C(c1ccccc1)N1C(=O)[C@@]2(Cc3ccccc31)N=C(c1ccc(OCCCO)cc1)O[C@H]2c1ccccc1 is -0.1 or above.
A) Criterion met

Q) # check: composite z-score of CC1CC/C=C\[C@H]2OC34C=CCN(Cc5ccccc5)C(=O)[C@H]3N(CCCO)C(=O)[C@@H]4C2C(=O)O1 (some centres undefined) is greater than or equal to -0.1
A) Criterion not met

Q) Could you verify whether the entry C=CCOC(=O)[C@H]1[C@@H]2C(=O)O[C@@H](c3ccccc3)[C@@H](c3ccccc3)N2[C@@H](c2ccc(OCCOC(=O)[C@H]3C[C@H]4C(=O)N[C@@H](CCCCNC(C)=O)C(=O)N4[C@H]3c3cccc(OCCO)c3)cc2)[C@]12C(=O)Nc1ccccc12 shows composite z-score of no less than -0.1?
A) Criterion met

Q) Hi team, for C=C[C@H](CO)NS(=O)(=O)c1ccc(Br)cc1 , is the recorded composite z-score at or above -0.1?
A) Criterion met

Q) I'd appreciate it if you could say whether COC(=O)[C@@]1(Cc2ccc(F)cc2)[C@H]2c3cc(C(=O)N(C)C)n(Cc4ccc(Cl)c(C(F)(F)F)c4)c3C[C@H]2CN1C(=O)c1ccccc1 has composite z-score at least equal to -0.1.
A) Criterion not met

Q) Kindly determine if composite z-score recorded for C=CCOC(=O)[C@H]1[C@@H]2C(=O)O[C@@H](c3ccccc3)[C@@H](c3ccccc3)N2[C@@H](c2ccc(OCCOC(=O)[C@H]3C[C@H]4C(=O)N[C@@H](CCCCN(C)C)C(=O)N4[C@H]3c3ccc(O)cc3)cc2)[C@]12C(=O)Nc1ccc(I)cc12 is above or exactly -0.1.
A) Criterion met

Q) Say whether COc1cc(Br)cc(C(O)C2C=CC3C(=O)N(C)C(=O)C3N2N2CCCCC2)c1OC (centres undefined) shows composite z-score of -0.1 or more.
A) Criterion not met

###

biological target: Dihydroorotate dehydrogenase (quinone), mitochondrial (Plasmodium falciparum (isolate 3D7)) (UniProt Q08210); assay: PfDHODH enzyme inhibitors, primary screen, biochemical, C-terminal His tag, absorbance 600 nm (AID 1175); settings: DCIP absorbance 600 nm, higher = more signal, called active from +8 up or from −8 down;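 also: recombinant parasite enzyme with a five histidine tag at its C terminus; test concentration not given here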
Sequence (Q08210 whole entry, looked up): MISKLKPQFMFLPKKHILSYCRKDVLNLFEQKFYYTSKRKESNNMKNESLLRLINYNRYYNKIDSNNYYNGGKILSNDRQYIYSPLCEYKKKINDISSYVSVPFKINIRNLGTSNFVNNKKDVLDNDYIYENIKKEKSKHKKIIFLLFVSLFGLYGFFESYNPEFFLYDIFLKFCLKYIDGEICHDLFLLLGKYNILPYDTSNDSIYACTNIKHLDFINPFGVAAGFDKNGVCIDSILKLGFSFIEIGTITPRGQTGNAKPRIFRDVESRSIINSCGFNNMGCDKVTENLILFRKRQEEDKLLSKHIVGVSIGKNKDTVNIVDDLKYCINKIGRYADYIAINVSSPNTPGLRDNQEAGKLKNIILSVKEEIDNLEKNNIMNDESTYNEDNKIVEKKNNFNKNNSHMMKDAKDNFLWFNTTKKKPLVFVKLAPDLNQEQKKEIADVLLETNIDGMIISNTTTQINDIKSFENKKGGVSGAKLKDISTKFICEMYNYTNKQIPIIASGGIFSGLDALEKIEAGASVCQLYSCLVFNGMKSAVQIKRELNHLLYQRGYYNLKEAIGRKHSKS
valueType: composite z-score
Lab note: jot the number down without any unit.

| molSmiles | composite z-score |
| --- | --- |
| COc1ccc(-c2cc3c(c(-c4ccc(Oc5ccccc5)cc4)n2)[Si](C(C)C)(C(C)C)OC3)cn1 | 0.568 |
| COc1cc2c(cc1OC)CN(C(=O)[C@H]1[C@@H]3C(=O)O[C@@H](c4ccccc4)[C@@H](c4ccccc4)N3[C@@H](c3ccc(O)cc3)[C@]13C(=O)Nc1ccc(C#CCCO)cc13)CC2 | 0.857 |

// next item, composite z-score requested
So, COc1ccc([Si](C)(C)[C@H]2[C@H](CC(=O)N3Cc4ccccc4C[C@H]3CO)O[C@@]3(C(=O)N(Cc4cccc(N5CCC5=O)c4)c4ccccc43)[C@@H]2C)cc1 ? Its composite z-score was -2.72

###

test system: Human papillomavirus type 1a protein E7 (residues 44-93); assay: HPV1a E7 fragment binders on microarrays, primary screen, biochemical, small-molecule microarray, residues 44-93, 635 nm fluorescence (AID 1108); details: small-molecule microarray binding, fluorescence 635 nm; higher = more signal;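 also: E7 fragment applied at 1 µg/mL in TBST for 1 h at 4 C; score combines spot fluorescence with its signal to noise ratio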
Please note: y applies when composite z-score is 1 or greater, and n applies otherwise.

| compound | categoryLabel |
| --- | --- |
| O=C(NC1CC1)[C@@H]1c2ccccc2C(=O)N(Cc2ccccc2Cl)[C@H]1c1ccc(CO)cc1 | n |
| COC(=O)[C@@]1(Cc2ccccc2)[C@H]2c3cc(C(=O)N4CCCC4)n(Cc4ccc(S(C)(=O)=O)cc4)c3C[C@H]2CN1C(=O)c1ccccc1 | n |
| C=CCNC(=O)[C@@H]1[C@H]2C(=O)O[C@H](c3ccccc3)[C@H](c3ccccc3)N2[C@H](c2ccccc2OCCO)[C@@]12C(=O)N(C(=O)OCCOC)c1ccccc12 | y |
| C=CCOC(=O)[C@@H]1[C@H]2C(=O)O[C@H](c3ccccc3)[C@H](c3ccccc3)N2[C@H](c2ccc(OCCOC(=O)[C@H]3C[C@H]4C(=O)N5CCC[C@H]5C(=O)N4[C@H]3c3ccc(O)cc3)cc2)[C@@]12C(=O)Nc1ccc(I)cc12 | n |
| CCS[C@H]1[C@@H](C(=O)O)[C@H](c2ccc(C)cc2)N(S(=O)(=O)c2ccc(C)cc2)[C@@H]1CC | y |
| C=CCOC(=O)[C@H]1[C@@H]2C(=O)O[C@@H](c3ccccc3)[C@@H](c3ccccc3)N2[C@@H](c2ccc(OCCOC(=O)[C@H]3C[C@H]4C(=O)N[C@@H](CCCC[N+](C)(C)C)C(=O)N4[C@H]3c3ccc(O)cc3)cc2)[C@]12C(=O)Nc1ccc(I)cc12 | n |
| COCCCNC(=O)[C@@H]1c2ccccc2C(=O)N(Cc2ccccc2Cl)[C@H]1c1ccc(CO)cc1 | n |
| COCCCNC(=O)[C@]1(CCC(=O)OC(C)(C)C)N=C(c2ccc(OCCCO)cc2)O[C@@H]1c1ccccc1CN=[N+]=[N-] | y |

Q) Tell me whether composite z-score is at least 1 here: O=C1N[C@@H](Cc2ccccc2)C(=O)N2[C@@H]1C[C@@H](C(=O)O)[C@H]2c1cccc(OCCO)c1
A) y

Q) Decide: is the reported value of composite z-score for CC(C)C[C@@H]1NC(=O)[C@H](C(C)C)NC(=O)[C@@]23C(=O)N[C@@H](Cc4ccccc4)C2[C@H](C)[C@@]2(C)O[C@H]2C3/C=C/CC/C=C/CNC1=O (stereo partly drawn) equal to or greater than 1?
A) y

Q) Hello, I need to know if C=CCN1C(=O)[C@]2(O[C@H](CCn3cc([C@H](O)c4ccccc4)nn3)[C@@H]([Si](C)(C)c3ccc(OC)cc3)[C@@H]2C)c2cc(N3CCC3=O)ccc21 has measured composite z-score not below 1. Thanks!
A) y

Q) Quick check, composite z-score >= 1? CCC(CC)C(O)C1C=CC2C(=O)NC(=O)C2N1Nc1ccccn1 (stereo not drawn)
A) n

Q) Record Oc1ccc2cc[n+](Cc3sc4ccccc4c3Cl)cc2c1 ; criterion: composite z-score no lower than 1. Met?
A) n

Q) Item CCOC(=O)C1=C[C@@H](C(C)(C)C)N(S(=O)(=O)c2ccc(C)cc2)[C@H]1c1ccc(F)cc1 with composite z-score of 1 or above?
A) y

Q) Say whether C=C(COC)/C(=C/C[C@H](OC(C)=O)c1ccc(CO)o1)c1cc(C(=O)OC)ccc1OC shows composite z-score of 1 or more.
A) n

Q) Item C=CC1(C(=O)OC)CC=C(C(=O)OC)CC1 (stereo not drawn) with composite z-score of 1 or above?
A) y

Q) Please check the record COCCOC(=O)N1C(=O)[C@@]2(c3cc(C#CCCO)ccc31)[C@H](C(N)=O)[C@H]1C(=O)O[C@H](c3ccccc3)[C@H](c3ccccc3)N1[C@@H]2c1ccc(O)cc1 and state if its composite z-score is at or above 1.
A) n

###

test: P. aeruginosa biofilm formation inhibitors, primary screen, strain PAO1, LB-PBS medium, absorbance 600 nm (AID 1176); also: test concentration not given here; settings: P. aeruginosa PAO1 growth/biofilm, A600, 12 h; higher = more signal
valueType: z-score
Form rule: numeric answer, no unit written next to it.

Example entries and their recorded answers appear below.
| compound | z-score |
| --- | --- |
| CC1(C)C2C=C(C(O)C3C=CC4C(=O)NC(=O)C4N3Nc3ccc(Cl)cc3Cl)C[C@@H]1C2 (stereo not given in full) | 1.55 |
| NC(=O)NCC#Cc1ccc2c(c1)[C@]1(C(=O)N2)[C@H](C(=O)Nc2nc3ccccc3s2)[C@H]2C(=O)O[C@H](c3ccccc3)[C@H](c3ccccc3)N2[C@@H]1c1ccccc1OCCO | 1.6 |
| COCCOC(=O)N1C(=O)[C@@]2(c3cc(C#CCNC(N)=O)ccc31)[C@H](C(=O)N1CCN(c3ncccn3)CC1)[C@H]1C(=O)O[C@H](c3ccccc3)[C@H](c3ccccc3)N1[C@@H]2c1ccc(OCCO)cc1 | 2.43 |
| COc1cc(C(O)C2C=CC3C(=O)NC(=O)C3N2Nc2ccccn2)cc(OC)c1OC (stereo not given) | 1.16 |

Continue with the compound presented below.
// z-score lookup, compound = COc1ccccc1CN1C(=O)c2ccccc2[C@@]2(Cc3ccccc3N(CC(C)C)C2=O)[C@@H]1c1ccc(CO)cc1 , result: 0.332
